Reported growth inhibition values follow for various compounds
Assay: NCI Yeast Anticancer Drug Screen. Data for the cln2 rad14 strain (AID 165);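 note: 0% = growth equal to vehicle treated cultures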
Conditions: S. cerevisiae cln2 rad14 strain, at 50.0 µM, stronger effect = higher value
About 79,000 compounds went through this panel and 15% of them were active in at least one assay; those are over-represented in the sample as a whole.
# value in %; strip the unit string

Consider the reported growth inhibition for these compounds:
>  <Compound>
c1ccc2c3[n+](ccc2c1)CCC[n+]1ccc2ccccc2c1-3

>  <growth inhibition, %>
60

$$$$
>  <Compound>
NCCCCCCCCCCC(=O)O

>  <growth inhibition, %>
-11.2

$$$$
>  <Compound>
CC(=O)CC(=O)NC(C)c1ccccc1 (stereo not given)

>  <growth inhibition, %>
-18.5

$$$$
>  <Compound>
CC(C)Nc1ccc(O)cc1

>  <growth inhibition, %>
-6.3

$$$$
>  <Compound>
COC(=O)/C(=C\Nc1cccc(C)n1)S(=O)(=O)c1ccc(C)cc1

>  <growth inhibition, %>
-21.5

$$$$

Okay, next one:
(Q) Please look up its growth inhibition: "O=C1/C(=C/c2ccc(O)c(CN3CCCCC3)c2)CCC/C1=C\c1ccc(O)c(CN2CCCCC2)c1"
(A) -8
